Data origin, for the record: paper doi:10.1101/2021.07.09.451751v1

Experimental target: aqMutL NTD (Aquifex aeolicus)
Construct: recombinant from E. coli
Experiment summary: equilibrium dialysis
Measurement name: Kd
Could you give the number and then its unit, please?

Could you share which Kd value was measured for `Nc1ncnc2c1ncn2[C@@H]1O[C@H](COP(=O)(O)OP(=O)(O)NP(=O)(O)O)[C@@H](O)[C@H]1O` ?
300 µM

----------
Experimental target: aqMutL NTD (Aquifex aeolicus, UniProt O67518, K79A)
Construct: recombinant from E. coli
Sequence (O67518 1-319 K79A limits assumed): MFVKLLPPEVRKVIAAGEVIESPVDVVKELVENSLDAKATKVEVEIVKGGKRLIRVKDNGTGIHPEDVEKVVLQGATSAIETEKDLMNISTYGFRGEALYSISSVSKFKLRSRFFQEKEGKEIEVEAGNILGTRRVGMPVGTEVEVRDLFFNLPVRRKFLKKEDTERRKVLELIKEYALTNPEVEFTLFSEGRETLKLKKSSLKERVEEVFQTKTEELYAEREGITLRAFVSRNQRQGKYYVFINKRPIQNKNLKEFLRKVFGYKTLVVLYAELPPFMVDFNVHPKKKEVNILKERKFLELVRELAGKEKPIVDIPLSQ
Experiment summary: equilibrium dialysis
Measurement name: Kd (µM)
Output spec: scalar in µM, unitless text.

Which Kd is listed for Nc1ncnc2c1ncn2[C@@H]1O[C@H](COP(=O)(O)OP(=O)(O)NP(=O)(O)O)[C@@H](O)[C@H]1O [AMPPNP] ?
340
